Test system: Saccharomyces cerevisiae BY4741 SeMeCo community
methodDescription: z-score of subpopulation abundance vs DMSO median, subpopulation auxotrophic for LM; higher = larger share of this subpopulation than in DMSO controls
conditions: 10 µM; 24 h; SM minimal medium; subpopulation (auxotrophy): LM
Counter-ions that a name gives are not always drawn.
param class (str): category from z-score of subpopulation abundance; see ranges 0 (below -0.5), 1 (-0.5 to below 1), 2 (1 or more)

Take a look at these entries with their results.
INSERT INTO measurements (molecule, labelvalue) VALUES
  ('COc1ccc(-c2nc3cc(C4=NNC(=O)CC4C)ccc3[nH]2)cc1 (configuration not stated)', 2),
  ('COCCCC/C(=N\OCCN)c1ccc(C(F)(F)F)cc1 [Fluvoxamine maleate]', 1),
  ('CCCCCOc1ccc(-c2ccc(-c3ccc(C(=O)N[C@H]4C[C@@H](O)[C@@H](O)NC(=O)[C@@H]5[C@@H](O)[C@@H](C)CN5C(=O)[C@H]([C@@H](C)O)NC(=O)[C@H]([C@H](O)[C@@H](O)c5ccc(O)cc5)NC(=O)[C@@H]5C[C@@H](O)CN5C(=O)[C@H]([C@@H](C)O)NC4=O)cc3)cc2)cc1', 2),
  ('C[C@]12CCC3=C4CCC(=O)C=C4CC[C@H]3[C@@H]1CC[C@@]2(O)CC#N', 1),
  ('CC(=O)OCC[N+](C)(C)C [Acetylcholine iodide]', 0);

[in] Tag the class for CO[C@H]1C[C@@H]2CC[C@@H](C)[C@@](O)(O2)C(=O)C(=O)N2CCCC[C@H]2C(=O)O[C@H]([C@H](C)C[C@@H]2CC[C@@H](OCCO)[C@H](OC)C2)CC(=O)[C@H](C)/C=C(\C)[C@@H](O)[C@@H](OC)C(=O)[C@H](C)C[C@H](C)/C=C/C=C/C=C/1C [Everolimus (RAD001)]
[out] 2

[in] Entry CCCCCOc1ccccc1/C(=C\SC)n1ccnc1 [Neticonazole Hydrochloride] belongs to which category?
[out] 0

[in] Please classify: O=C(O)c1ccccc1C(=O)Nc1ccc(S(=O)(=O)Nc2nccs2)cc1
[out] 1
